Biological target: human alpha-synuclein monomer (human, UniProt P37840 1-140)
Test: SPR (Biacore 8K), IgG captured on anti-human Fc, aSyn monomer injected;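 also: aSyn injected as a dilution series, signal corrected against a reference cell holding an irrelevant IgG, Kd from one-to-one Langmuir kinetic fitting of kon and koff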

[
  {
    "binder": "H1_6_LC2 (antibody, V domains shown) VH: EVQLVESGGGLVQPGGSLRLSCAASGFNFSKAAMYWVRQAPGKGLELVSRIRTKPNNYATYHADSVKGRFTISRDNSKNTLYLQMNSLRAEDTAVYYCTADMATGDYWGQGTLVTVSS VL: DIQMTQSPSSLSASVGDRVTITCKASQNINKNLDWYQQKPGKAPKPLIYSTNNLQTGVPSRFSGSGSGTDFTLTISSLQPEDFATYYCYQYKSAWTFGQGTKVEIK",
    "measure-unit": "nM",
    "Kd": 3.91
  },
  {
    "binder": "HC2_L3_6 (antibody, V domains shown) VH: EVQLVESGGGLVQPGGSLRLSCAASGFTFSNAAMYWVRQAPGKGLELVSRIRTKPNNYATYHADSVKGRFTISRDNSKNTLYLQMNSLRAEDTAVYYCTADMATGDYWGQGTLVTVSS VL: DIQMTQSPSSLSASVGDRVTITCKASQNINKNLDWYQQKPGKAPKPLIYSTNNLQTGVPSRFSGSGSGTDFTLTISSLQPEDFATYYCYQYKKAWTFGQGTKVEIK",
    "measure-unit": "nM",
    "Kd": 3.28
  },
  {
    "binder": "HC2_L2_2 (antibody, V domains shown) VH: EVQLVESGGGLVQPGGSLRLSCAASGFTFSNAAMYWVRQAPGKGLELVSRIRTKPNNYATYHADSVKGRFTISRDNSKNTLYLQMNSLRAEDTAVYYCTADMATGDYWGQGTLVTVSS VL: DIQMTQSPSSLKSSVGDRVTITCKASQNINKNLDWYQQKPGKAPKPLIYRTKNLQTGVPSRFSGSGSGTDFTLTISSLQPEDFATYYCYQYKSAWTFGQGTKVEIK",
    "measure-unit": "nM",
    "Kd": 2.01
  }
]

Origin of measurements: patent US20230074436A1
